# Protocol notes: Cytotoxicity against human HepG2 cells cultured as C3a spheroids assessed as reduction in cell viability
# Type: toxicity, cell-based
Measured metric: IC50
I'd appreciate it if you included the unit after the number.

Return the recorded IC50 value; entry: `COc1cc(F)c(O[C@H]2CC[C@@](C)(C(=O)O)CC2)cc1C(=O)N[C@@H]1[C@H]2CC[C@H](C2)[C@@H]1C(=O)Nc1ccc(F)c(S(F)(F)(F)(F)F)c1` 17 µM

Return the recorded IC50 value; entry: `COc1cc(F)c(O[C@H]2CC[C@@](C)(C(=O)O)CC2)cc1C(=O)N[C@H]1[C@@H]2CC[C@@H](C2)[C@H]1C(=O)Nc1ccc(F)c(S(F)(F)(F)(F)F)c1` 34 µM

Reference source: ChEMBL document CHEMBL5518235
